The compounds listed here are annotated with their pIC50.
Target: endothelial lipase (EL) (Homo sapiens, UniProt Q9Y5X9)
Construct: transformed by RAGE technology (Athersys) to overexpress endogenous EL; endogenous in cells; conditioned medium used as the enzyme source
Sequence (Q9Y5X9 21-500): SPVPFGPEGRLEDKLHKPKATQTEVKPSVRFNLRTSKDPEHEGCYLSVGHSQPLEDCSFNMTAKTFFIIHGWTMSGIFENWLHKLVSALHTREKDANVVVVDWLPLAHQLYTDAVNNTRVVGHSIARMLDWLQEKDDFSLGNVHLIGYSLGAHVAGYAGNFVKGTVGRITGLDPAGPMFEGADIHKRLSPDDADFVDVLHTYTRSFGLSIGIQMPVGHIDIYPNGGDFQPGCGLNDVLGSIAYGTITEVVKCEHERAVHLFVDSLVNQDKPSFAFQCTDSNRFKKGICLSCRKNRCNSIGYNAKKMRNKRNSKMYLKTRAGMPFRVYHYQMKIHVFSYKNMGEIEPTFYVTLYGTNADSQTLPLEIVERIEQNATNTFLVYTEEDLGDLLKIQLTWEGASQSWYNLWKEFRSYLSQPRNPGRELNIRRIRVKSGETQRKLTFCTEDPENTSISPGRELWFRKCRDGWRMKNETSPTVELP
Experiment: Endothelial lipase (EL) enzymatic assay with fluorescent substrate A10070 in DMPG vesicles
Details: conditioned media from HT-1080 cells overexpressing endogenous EL, 20 min preincubation at 37° C.
Description: Endothelial lipase activity was measured using a fluorescent substrate, A10070, (Invitrogen, CA) doped into an artificial vesicle containing DMPG (Avanti Polar Lipids) as the excipient. […] The enzymatic assay was measured using white, opaque 96-well half area plates. […] The reaction rates were measured on a Gemini plate reader with an excitation wavelength of 488 nm and a emission of 530 nm. Readings were taken every 20 seconds for 10 min with agitation between each reading. […]
Reminder that pIC50 is minus the log10 of a molar concentration.

[[record]]
compound = "Nc1c(C(=O)NCC2CCN(S(=O)(=O)c3ccc(Cl)c(Cl)c3)CC2)[nH]c(=O)[nH]c1=O"
measurement = 5.50

[[record]]
compound = "Nc1c(C(=O)NCCCc2ccc(Cl)c(Cl)c2)[nH]c(=O)[nH]c1=O"
measurement = 6.83

[[record]]
compound = "C[C@H](COc1c(Cl)cccc1Cl)NC(=O)c1[nH]c(=O)[nH]c(=O)c1N"
measurement = 7.96

[[record]]
compound = "C[C@@H](NC(=O)c1[nH]c(=O)[nH]c(=O)c1N)c1cc(-c2cnn(Cc3ccccc3)c2)ccc1O"
measurement = 5.16

[[record]]
compound = "Nc1c(C(=O)NCC2CCc3nn(Cc4ccccc4)cc3C2)[nH]c(=O)[nH]c1=O (stereo not shown)"
measurement = 5.61


Please find the next compound below.
# query: pIC50 of entry "CCCOc1cc(F)ccc1CNC(=O)c1c(O)c(=O)n(C)c(=O)n1CCC"
5.33
